Target: T1, recombinant canine Nerve Growth Factor (Canis lupus familiaris NGF) (canine (Canis lupus familiaris), UniProt Q29074 110-229 (pig entry), limits assumed)
T1 construct: also called canine NGF; Dog NGF
T1 chain: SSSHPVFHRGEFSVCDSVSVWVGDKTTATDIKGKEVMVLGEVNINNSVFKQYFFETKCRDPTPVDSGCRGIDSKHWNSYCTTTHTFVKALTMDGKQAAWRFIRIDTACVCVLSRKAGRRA
Test: SPR, 1:1 binding fit, canine NGF
Below: a set of entries, each annotated with reported kon.

{"Binder": "SSM-22 (LC SSMwtLCR53S, HC SSMwtHCD54T, G31E) (antibody, V domains shown) VH: EVQLVESGGDLARPGGSLKLSCVVSGFSLIEYDINWVRQAPGKGLQWVTMIWGTGTTDYNSALKSRFTVSRDNAMNTVYLQMNSLRVEDTAVYYCARGGYYYGTSYYFDYWGQGTLVTVSS VL: DIVMTQTPLSLSVSPGETASISCRASQDISNHLNWFRQKPGQSPQRLIYYISSFHSGVPDRFSGSGSGTDFTLRISRVEADDTGVYYCQQSKTLPYTFGAGTKLEIK", "kon [M⁻¹ s⁻¹]": 1190}
{"Binder": "SSM-14 (LC SSMwtLCR53S, HC SSMwtHCG31E) (antibody, V domains shown) VH: EVQLVESGGDLARPGGSLKLSCVVSGFSLIEYDINWVRQAPGKGLQWVTMIWGDGTTDYNSALKSRFTVSRDNAMNTVYLQMNSLRVEDTAVYYCARGGYYYGTSYYFDYWGQGTLVTVSS VL: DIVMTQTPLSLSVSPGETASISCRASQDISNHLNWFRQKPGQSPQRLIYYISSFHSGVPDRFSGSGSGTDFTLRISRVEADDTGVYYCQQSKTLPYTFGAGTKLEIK", "kon [M⁻¹ s⁻¹]": 344000}
{"Binder": "SSM-13 (LC SSMwtLCR53S, HC SSMwtHCG31Q) (antibody, V domains shown) VH: EVQLVESGGDLARPGGSLKLSCVVSGFSLIQYDINWVRQAPGKGLQWVTMIWGDGTTDYNSALKSRFTVSRDNAMNTVYLQMNSLRVEDTAVYYCARGGYYYGTSYYFDYWGQGTLVTVSS VL: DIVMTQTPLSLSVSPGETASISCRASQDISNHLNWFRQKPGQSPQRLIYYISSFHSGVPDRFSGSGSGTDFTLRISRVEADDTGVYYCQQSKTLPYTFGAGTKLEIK", "kon [M⁻¹ s⁻¹]": 7750}
{"Binder": "SSM-34 (LC SSM135LCR53S, HC135 (G103A)) (antibody, V domains shown, The light chain is the LTM135 template (E3M H32N) plus R53S) VH: EVQLVESGGDLARPGGSLKLSCVVSGFSLIGYDINWVRQAPGKGLQWVTMIWGDGTTDYNSALKSRFTVSRDNAMNTVYLQMNSLRVEDTAVYYCARGGYYYATSYYFDYWGQGTLVTVSS VL: DIVMTQTPLSLSVSPGETASISCRASQDISNNLNWFRQKPGQSPQRLIYYISSFHSGVPDRFSGSGSGTDFTLRISRVEADDTGVYYCQQSKTLPYTFGAGTKLEIK", "kon [M⁻¹ s⁻¹]": 62400}
{"Binder": "SSM-3 (LC E3M, HC SSMwtHCG31E) (antibody, V domains shown) VH: EVQLVESGGDLARPGGSLKLSCVVSGFSLIEYDINWVRQAPGKGLQWVTMIWGDGTTDYNSALKSRFTVSRDNAMNTVYLQMNSLRVEDTAVYYCARGGYYYGTSYYFDYWGQGTLVTVSS VL: DIVMTQTPLSLSVSPGETASISCRASQDISNHLNWFRQKPGQSPQRLIYYISRFHSGVPDRFSGSGSGTDFTLRISRVEADDTGVYYCQQSKTLPYTFGAGTKLEIK", "kon [M⁻¹ s⁻¹]": 4040}
{"Binder": "SSM-17 (LC SSMwtLCR53S, HC SSMwtHCD54T) (antibody, V domains shown) VH: EVQLVESGGDLARPGGSLKLSCVVSGFSLIGYDINWVRQAPGKGLQWVTMIWGTGTTDYNSALKSRFTVSRDNAMNTVYLQMNSLRVEDTAVYYCARGGYYYGTSYYFDYWGQGTLVTVSS VL: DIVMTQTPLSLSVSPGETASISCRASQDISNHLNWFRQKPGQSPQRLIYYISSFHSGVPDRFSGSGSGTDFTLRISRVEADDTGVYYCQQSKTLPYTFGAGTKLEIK", "kon [M⁻¹ s⁻¹]": 20300}
